Overview of reported GI50 across a group of molecules:
- Tested on: HOP-62
- Experiment notes: NCI tumour cell line growth inhibition, 48 h
The source made the active and inactive calls. Rule as the data show it: active = GI50 up to about 1.1 µM and inactive = higher.
Outcome measure: GI50

CCCCCCCCCCCC(=O)c1c(O)cccc1O    17.6 µM (inactive)
COC(=O)N1CCc2c(nc(N(C)CCO)[nH]c2=O)C1    > 100 µM (inactive)
COC(O)C(=O)c1c2c(cc3c1CCC3)CCC2 (stereo unspecified)    > 100 µM (inactive)
COc1ncc(C#CC(=O)c2ccccc2)c(OC)n1    19.3 µM (inactive)
CCOC(=O)C1=C(Nc2cccc3ccccc23)OCC1=O    > 100 µM (inactive)
CCN(CC)CCNC(=O)C1COc2ccc(-c3cc(=O)c4ccccc4o3)cc2O1 (stereo unspecified)    21.4 µM (inactive)

###

- System: TK-10
- Experiment notes: NCI tumour cell line growth inhibition, 48 h
Active and inactive are the calls of the source. Rule as the data show it: active = GI50 up to about 1.1 µM and inactive = higher.
Overview of reported GI50 across a group of compounds:
Outcome measure: GI50

O=C(C[N+]12CN3CN(CN(C3)C1)C2)c1ccc(-c2ccccc2)cc1    21.2 µM (inactive)
O=c1[nH]c(=O)n(COCc2ccccc2)c2ccccc12    51.5 µM (inactive)
C=CCn1c(S)nnc1C12CC3CC(CC(C3)C1)C2    50.7 µM (inactive)
O=C(c1ccc(Cl)c(Cl)c1)N(Cc1cccnc1)C(=S)N(Cc1cccnc1)C(=O)c1ccc(Cl)c(Cl)c1    29.9 µM (inactive)
COC(=O)c1cc(O)ccc1NC(=O)c1ccc(O)cc1    82.2 µM (inactive)
O=[N+]([O-])c1ccc2c(c1)C1=C(CO2)Cc2ccccc2O1    26.5 µM (inactive)
COC(=O)[C@]12CCC(=O)N1[C@H](C(=O)O)Cc1c2[nH]c2ccccc12    > 100 µM (inactive)
O=C1C=CC(=O)c2nc3c(cc21)CCC3    18.5 µM (inactive)
Nn1c(CNc2ccc(-c3nnc(Nc4ccc(Cl)cc4)n3N)cc2)nnc1Nc1ccc(Cl)cc1    > 100 µM (inactive)
NC(=O)N/C=C1\C(=O)Oc2ccccc2C1=O    > 100 µM (inactive)
COc1cc(Cn2c(=S)ss/c2=N\C(=S)N(C)C)cc(OC)c1OC    34.8 µM (inactive)
C[C@]12CC[C@H](OC(=O)Nc3ccccc3)CC1=CC[C@@H]1C2CC[C@]2(C)/C(=N/OC(=O)Nc3ccccc3)CCC12 (stereo partly specified)    6.61 µM (inactive)
Cc1cccc(/N=N/c2c(C)nn(C(=O)CC(=O)Nc3ccccc3)c2C)c1    > 100 µM (inactive)
CC1(C)c2ccccc2N2O[C@@H]3C(=O)N(c4ccccc4)C(=O)[C@@H]3C21c1ccccc1 (stereo partly specified)    > 100 µM (inactive)
COc1ccccc1C1c2cc3c(cc2OC(N2CCOCC2)C1C)OCO3 (stereo unspecified)    22 µM (inactive)
COCC12CCC(OC)C34C5CC6(O)C(OC)CC(OC(C)=O)(C5C6OC(=O)c5ccccc5)C(C(OC)C13)C4N(C)C2 (stereo unspecified)    > 100 µM (inactive)
c1ccc2[nH]c(-c3cscn3)nc2c1    > 100 µM (inactive)
c1ccc2c(Nc3ccc(Oc4ccc(Nc5c6ccccc6nc6ccccc56)cc4)cc3)c3ccccc3nc2c1    1.19 µM (inactive)
NCCCCCNOCCCN    > 100 µM (inactive)
CN(C)CCNC(=O)c1cccc2ccc(-c3ccncc3)nc12    2.21 µM (inactive)
CC(C)C(=O)NS(=O)(=O)c1ccccc1    > 100 µM (inactive)

###

Overview of reported GI50 across a group of compounds:
- System: MDA-N
- Experiment notes: NCI tumour cell line growth inhibition, 48 h
Calls of active or inactive are those of the source. Rule as the data show it: active = GI50 up to about 1.1 µM and inactive = higher.
Outcome measure: GI50

COC(O)C(=O)c1c2c(cc3c1CCC3)CCC2 (stereo unspecified)    > 100 µM (inactive)
Cc1ccc(S(=O)(=O)OCCC2CN(C(=O)OCc3ccccc3)C(C)(C)O2)cc1 (stereo unspecified)    12.5 µM (inactive)
C/C(=N\NC(=S)NC(C)C)c1nc2cccnc2[nH]1    > 100 µM (inactive)
CC(O)C(NC(=O)C(CS)NC(=O)C(CO)NC(=O)C(CCCCN)NC(=O)C(Cc1c[nH]c2ccccc12)NC(=O)C(Cc1ccc(O)cc1)NC(=O)C(CS)NC(=O)C(N)Cc1ccccc1)C(N)=O (stereo unspecified)    > 25 µM (inactive)
O=C1N/C(=N/N=C/c2ccccc2)N/C1=C\c1c[nH]c2ccccc12    > 100 µM (inactive)
C=C1c2cc3c(cc2CC12Cc1cc4c(cc1C2=O)CCC4)CCC3 (stereo unspecified)    > 100 µM (inactive)

###

- System: SK-OV-3
- Experiment notes: NCI tumour cell line growth inhibition, 48 h
Active and inactive are the calls of the source. Rule as the data show it: active = GI50 up to about 1.1 µM and inactive = higher.
Outcome measure: GI50

CCOC(=O)c1csc(NC(=O)CN2CCOCC2)n1    > 100 µM (inactive)
COc1ccc([N+](=O)[O-])c2c(NCCCN(C)C)c(C)c(C)nc12    > 100 µM (inactive)
CCCCc1c(C(=O)OC(C)(C)C)cc(C#Cc2cc(C(=O)OC(C)(C)C)c(CCCC)c(C(=O)OC(C)(C)C)c2)cc1C(=O)OC(C)(C)C    > 100 µM (inactive)
c1ccc(CSC2(SCc3ccccc3)CCCCC2)cc1    > 10 µM (inactive)
CCCCn1c(C)c(C(=O)OCC)s/c1=N/Nc1nc2ccccc2nc1-c1ccccc1    53.3 µM (inactive)
COc1cc2c(cc1O)C(=O)O[C@@H]1CC=C3CCN(C)[C@H]3[C@H]21    > 25 µM (inactive)
CCn1sc2ccccc2c1=O    36 µM (inactive)
CN(C)c1ccc(C(C=C2c3ccccc3Sc3ccccc32)=C(C#N)C#N)cc1    > 100 µM (inactive)
CCCC(C)NC(=O)c1ccc(N(C)Cc2cnc3nc(N)nc(N)c3n2)cc1 (stereo not given)    41.6 µM (inactive)
COc1cc(/C=C2\CCC(C)C3C2=NN(C(C)=O)C3c2cc(OC)c(OC)c(OC)c2)cc(OC)c1OC (stereo not given)    > 100 µM (inactive)

###

- System: SK-MEL-28
- Experiment notes: NCI tumour cell line growth inhibition, 48 h
The source made the active and inactive calls. Cut-off read from the data, not from the text of the source: active = GI50 up to about 1.1 µM and inactive = higher.
Outcome codes: Y = active, N = inactive

CCOP(=O)(O)C1C(CO)OC(n2ccc(=O)[nH]c2=O)C1O (centres undefined)    N
CC(=O)NC1C(Sc2ncn(C3OC(CO)C(O)C(O)C3NC(C)=O)n2)OC(CO)C(O)C1O (centres undefined)    N
C[C@H]1C=C2[C@@H]3CC(C)(C(=O)O)CC[C@]3(C)CC[C@]2(C)[C@]2(C)CC[C@H]3C(C)(C)[C@@H](OC(=O)c4cccc5c(=O)c6ccccc6[nH]c45)CC[C@]3(C)[C@@H]12 (some centres undefined)    N
COC(=O)Cc1nn2c(nc1=O)sc1ccc3ccccc3c12    N
CC(Br)C(=O)Nc1ccc(C(=O)O)c(O)c1 (centres undefined)    N
COC(O)C(=O)c1c2c(cc3c1CCC3)CCC2 (centres undefined)    N
CCCCCCCCC[C@@H]1C[C@@H]2CCC3C(C(=O)OC)=C(C)N=C(N1)N32 (some centres undefined)    N
O[C@@H]1C[C@@H]2N[C@@](O)(C[C@@H]2O)[C@H]1O    N
O=C(CC(O)(C(F)(F)F)C(F)(F)F)C(CCCl)C(O)(C(F)(F)F)C(F)(F)F (centres undefined)    N
COc1cc(CNC(=S)CCCCCCCCCCC(C)C)ccc1O    N
CC1=C[C@H]2c3c([nH]c4ccccc34)C(c3c[nH]c4ccccc34)[C@H]2CC1 (some centres undefined)    N
OC(CCN1CCN(CCOC(c2ccc(F)cc2)c2ccc(F)cc2)CC1)c1ccc(Br)cc1 (centres undefined)    N
N#CC(/C(=N/NC(=O)C(=O)NN)C(=O)NC12CC3CC(CC(C3)C1)C2)c1ccccc1 (centres undefined)    N
Cc1cc(=O)oc2cc(OC(=O)N(CCCl)CCCl)ccc12    N
Nc1c(-c2ccccc2)c2ccc([N+](=O)[O-])cc2c(=O)n1-c1cccc(C(=O)O)c1    N
N#Cc1c(-c2ccco2)cc(-c2ccccc2)nc1O    N
O=C1c2ccoc2C(=O)c2oc(=O)ccc21    N
Oc1cc2cc(-c3ccccc3)[nH]c2c2ccccc12    N
COc1nc(OC)c2c(=O)oc(-c3ccccc3)cc2n1    N
c1ccc(-c2nc3ccccc3n3c(CN4CCCCC4)nnc23)cc1    N
CCOC1c2nc3ccccc3nc2-c2ccccc2N1C(C)=O (centres undefined)    N
CCN1CCC(O)(c2ccc(Oc3ccc(Cl)cc3)cc2)C(C(=O)c2ccc(Oc3ccc(Cl)cc3)cc2)C1 (centres undefined)    N
N#CC1CNC(N)NC1N (centres undefined)    N
N#CCc1nc(O)c2ccccc2n1    N
CC(O)C1(CNc2cc(Cl)nc(N)n2)CC(CCc2ccccc2)C1 (centres undefined)    N
CC(=O)CCCCO    N
Cc1ccc2c(c1)C=CC(C#N)N2C(=O)Oc1ccccc1 (centres undefined)    N
CCOC(=O)C1=C(Nc2cccc3ccccc23)OCC1=O    N
NC(=O)NC(=O)c1cccc(NC(=O)CI)c1    Y
CCCCCCC(=O)C/C(CCC(=O)N(Cc1ccccc1)Cc1ccccc1)=N\Nc1ccc([N+](=O)[O-])cc1[N+](=O)[O-]    N
CCOC(=O)/C(=C\c1ccccc1)C(=O)O    N
CCOC(=O)c1cc(/C=C/C(C)=C/C(=O)OC)oc1C    N
COC(=O)C12CCCN1CCC2    N
COC(=O)C1=C(C(=O)OC)SC(=CC#CC=C2SC(C(=O)OC)=C(C(=O)OC)S2)S1    N
O=S(=O)(O)c1cc(/N=[N+](\[O-])c2ccc(/N=N/c3ccccc3)cc2S(=O)(=O)O)ccc1/C=C/c1ccc(/N=[N+](\[O-])c2ccc(/N=N/c3ccccc3)cc2S(=O)(=O)O)cc1S(=O)(=O)O    N
Cc1cc2c(O)c(c1)COCc1cc(C)cc(c1O)COCc1cc(C)cc(c1O)COC2    N
Nc1nc(SCc2ccc([N+](=O)[O-])cc2)nc2c1ncn2C1OC(COP(=O)(O)O)C(O)C1O (centres undefined)    N
N=C(N)NNC(=O)CCCCCCCC(=O)NNC(=N)N    N
CC[C@@H](C(=O)[C@@H](C)[C@@H](O)[C@H](C)CCc1ccc(C)c(O)c1C(=O)O)[C@H]1O[C@](CC)([C@H]2CC[C@](O)(CC)[C@H](C)O2)C[C@@H]1C [LASALOCID A SODIUM]    N
